Molecular target: T1, Human PTGFRN-ECD (extracellular domain; amino-acid 26 to amino-acid Y at 832), His-tag protein (human, UniProt Q9P2B2 26-832)
T1 construct: range 26-832; Expressed in Hek-293 cells, purified on a nickel column; also called recombinant PTGFRN; not shown: His-tag
T1 sequence (looked up): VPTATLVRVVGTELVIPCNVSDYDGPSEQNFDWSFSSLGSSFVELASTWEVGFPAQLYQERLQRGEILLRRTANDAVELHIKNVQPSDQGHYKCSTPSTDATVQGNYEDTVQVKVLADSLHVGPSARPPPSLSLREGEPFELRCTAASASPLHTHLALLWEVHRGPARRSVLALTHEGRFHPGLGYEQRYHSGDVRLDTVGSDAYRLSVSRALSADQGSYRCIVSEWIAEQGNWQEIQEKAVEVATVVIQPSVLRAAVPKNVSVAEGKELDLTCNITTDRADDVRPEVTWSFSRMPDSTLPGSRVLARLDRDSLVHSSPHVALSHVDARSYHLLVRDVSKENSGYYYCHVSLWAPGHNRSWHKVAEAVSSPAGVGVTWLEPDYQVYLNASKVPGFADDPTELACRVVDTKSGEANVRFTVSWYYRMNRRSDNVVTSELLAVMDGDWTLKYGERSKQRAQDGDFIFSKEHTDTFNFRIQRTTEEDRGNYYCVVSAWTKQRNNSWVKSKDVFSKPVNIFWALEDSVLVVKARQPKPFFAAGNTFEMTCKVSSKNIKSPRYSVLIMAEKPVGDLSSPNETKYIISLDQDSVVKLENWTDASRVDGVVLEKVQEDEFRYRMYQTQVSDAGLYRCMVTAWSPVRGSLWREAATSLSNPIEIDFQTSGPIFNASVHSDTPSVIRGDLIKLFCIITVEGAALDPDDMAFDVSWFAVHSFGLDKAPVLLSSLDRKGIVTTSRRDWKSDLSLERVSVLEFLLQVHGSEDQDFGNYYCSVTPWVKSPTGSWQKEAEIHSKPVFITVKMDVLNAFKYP
Experiment: Octet Red96 pairing (binning matrix) on PTGFRN-ECD; capture Ab (1st loading Ab): 10E6
Assignment: determine reported Octet pairing response for the given binders.
One number for each entry.

These solved cases illustrate the format of a correct answer.
{"BINDER": "10D9 (antibody, V domains shown, Mouse hybridoma mAb) VH: DVQLQESGPGLVKPSQSLSLTCSVTGCSITSGYDWNWIRQFPGNKLEWMGYINYDGNSNYIPSLKNRVSITRDTSKNQFFLKLNSVTTEDTATYYCARSDGYYWYFDVWGTGTTVTVSS VL: DIKMTQSPSSMYASLGERVTITCKASQDIKSYLSWYQQKPWKSPKTLIYYATSLADGVPSRFSASGSGQDYSLTISSLESDDTATYYCLQHAERPLTFGAGTKLELK", "Octet pairing response": 0.329}
{"BINDER": "3E10 (antibody, V domains shown) VH: EVHLVESGGDLVKPGGSLKLSCAASGFTFSSYGMSWVRQTPDKRLEWVASISSGGSHTYYPDRVKGRFTISRDNAKNTLYLQMSSLKSEDTAMYYCARHPSYYGSSLYCFDYWGQGTTLTVSS VL: DIQMTQTTSSLSASLGDRVTISCRASQDISNYLNWYQQKPDGTVKLLIYYTSRLHSGVPSRFSGSGSGTDFSLTISNLEQEDVATYFCQQGSTLPWTFGGGTKLEIK", "Octet pairing response": 0.305}
{"BINDER": "6F6 (antibody, V domains shown, Mouse hybridoma mAb) VH: QVQLQQSGAELVKPGASVKVSCKASGYTFTTYWMHWVKQRPGQGLEWIGRIHPSDSDTNYNQKFKGKATLTLDKSSSTAYMQLSSLTSEDSAVYYCAMSLYYTMDYWGQGTSVTVSS VL: DIQMTQSPSSLSASLGGKVTITCKASQDIKKYIAWYQHKPGKGPRLLIHYTSTLQPGIPSRFSGSGSGRDYSFSISNLEPEDIATYYCLQYDNLLYTFGGGTKLEIK", "Octet pairing response": 0.255}

State the recorded Octet pairing response for every item in the following list.
1. 2B12 (antibody, V domains shown, Mouse hybridoma mAb) VH: QVQLQQPGAELVKPGASVKMSCKASGYTFTSYWITWVKQGPGQGLEWIGDIYPGSGNTNYNEKFKSKATLTVDTSSSTAYMQLSSLTSEDSAVYYCARFFILTSYYFDYWGQGTTLTVSS VL: GIVMTQSQKFMSTTVGDRVSITCKASQNVGTAVAWFQQKPGQSPKLLIYLASNRYTGVPDRFTGSGSGTDFTLTISNMQSEDLADYFCQQYSNYPLTFGAGTKLELK
2. 1E2 (antibody, V domains shown, Mouse hybridoma mAb) VH: DVQLQESGPGLVKPSQSLSLTCSVTDYSITSGYYWNWIRQFPGNKLEWMGYISYDGSNNYNPSLKNRLSITRDTSKNQFFLKLNSVTPEDTATYYCARGWDYCFDYWGQGATLTVSS VL: DIQMTQTTSSLSASLGDRVTISCSASQGISNYLNWYQQKPDGTVKLLIYYTSGLHSGVPSRFSGSGSGTDYSLTISNLEPEDIATYYCQQYSQLPWTFGGGTKLEIK

stdout:
[0.157, 0.306]
